Just for reference, the supplement of paper PMC6555819 is where these values come from.

tested on: PPARg:RXRa 30nM:10nM, anti-RXR (NR concentration 30 nM, RXRa partner concentration 10 nM); assay: PBM binding z-score (relative to random genomic background probes); higher = stronger binding; sequences stand for … in GC…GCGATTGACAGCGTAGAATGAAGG
Parameter class (string): assigned from measured PBM binding z-score. Ranges: range 1 (below 1), range 2 (1 to below 3), range 3 (3 or more)

Known results for sequences:
**Q:** Which band does `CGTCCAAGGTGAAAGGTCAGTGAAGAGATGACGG` fall in?
**A:** range 3

**Q:** Class for `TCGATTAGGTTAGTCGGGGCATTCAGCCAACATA` ?
**A:** range 2

**Q:** Category lookup for the sequence `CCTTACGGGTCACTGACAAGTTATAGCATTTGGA`
**A:** range 2

**Q:** Kindly state the category for this sequence: `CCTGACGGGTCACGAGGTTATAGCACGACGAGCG`
**A:** range 2

**Q:** Record `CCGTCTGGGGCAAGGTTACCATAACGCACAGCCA` — which class?
**A:** range 1

**Q:** Bin this entry: `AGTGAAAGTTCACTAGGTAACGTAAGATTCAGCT`
**A:** range 3

**Q:** State the class of the sequence shown: `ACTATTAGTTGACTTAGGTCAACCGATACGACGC`
**A:** range 1

**Q:** Assign a bin to `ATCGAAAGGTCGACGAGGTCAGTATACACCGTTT`
**A:** range 2

**Q:** Any idea which band `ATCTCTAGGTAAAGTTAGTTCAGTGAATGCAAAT` is in?
**A:** range 1

**Q:** Kindly state the category for this sequence: `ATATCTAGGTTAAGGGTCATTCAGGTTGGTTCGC`
**A:** range 3

Turning to the following sequence.
**Q:** Quick check: band for `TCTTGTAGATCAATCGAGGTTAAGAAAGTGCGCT`
**A:** range 2

###

Reported values of PBM binding z-score for individual entries
test system: PXR homodimer (NR concentration 270 nM); assay: PBM binding z-score (relative to random genomic background probes); higher = stronger binding; sequences stand for … in GC…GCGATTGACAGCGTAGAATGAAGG
Enter a number only.

Below, each entry is followed by its recorded PBM binding z-score result.
Data point: `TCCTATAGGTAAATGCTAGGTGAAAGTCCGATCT` ; PBM binding z-score = -0.266

// PBM binding z-score lookup, sequence = `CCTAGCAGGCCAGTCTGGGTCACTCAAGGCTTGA` , result: -0.718

The measured PBM binding z-score associated with `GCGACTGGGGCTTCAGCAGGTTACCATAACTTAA` reads -0.245

Next:
// recorded PBM binding z-score for `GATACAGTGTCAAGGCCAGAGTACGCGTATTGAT` : 0.246

Memo: `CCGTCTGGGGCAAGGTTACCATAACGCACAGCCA` , reported PBM binding z-score: -0.461

PBM binding z-score measured on `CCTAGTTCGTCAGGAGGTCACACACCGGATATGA` = 2.66

Looking up `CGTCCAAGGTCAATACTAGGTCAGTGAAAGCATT` , I see its PBM binding z-score listed as 1.76

Entry `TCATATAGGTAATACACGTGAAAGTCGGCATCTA` ; PBM binding z-score = 0.547

// PBM binding z-score lookup, sequence = `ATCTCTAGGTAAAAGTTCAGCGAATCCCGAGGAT` , result: 1.54
